Biological target: GST-NST2(1-184) (Arabidopsis thaliana, UniProt Q9M274 1-184)
Sequence: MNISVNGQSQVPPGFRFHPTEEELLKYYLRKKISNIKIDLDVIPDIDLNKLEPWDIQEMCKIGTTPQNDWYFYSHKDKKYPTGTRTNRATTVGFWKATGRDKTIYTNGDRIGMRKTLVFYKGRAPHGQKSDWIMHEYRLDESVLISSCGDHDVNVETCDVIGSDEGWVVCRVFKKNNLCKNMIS
Test: universal protein binding microarray (PBM); transcription factors of Arabidopsis thaliana; high values mean tight binding
Settings: protein: recombinant; tags: GST; chain copies: 2; dsDNA, one strand shown
ASSAY METRIC: binding signal (E-score)
Kindly provide the numeric value in E-score only, without the unit symbol.

Given CGCACGCA , state its recorded binding signal. 0.213

binding signal for AAGCGTAA ? 0.212

So what's the measured binding signal for this one? GTTAAGCA 0.209

// binding signal lookup, key: CTAAGTTA 0.282

// lookup binding signal for CACGGCAA 0.256

GET /values?readout=binding signal&item= GTTACGTA 0.337

Using the record for CCACGCAA , report its binding signal. 0.348

What binding signal value was documented for this sequence, CACACGCC ? 0.134

# input sequence: GTCAACAA ; wanted: its binding signal 0.101

# input sequence: AAGCAATC ; wanted: its binding signal 0.327

Could you tell me which binding signal is on file for GCAAGAAA ? 0.201

Dear colleague, I am looking for the recorded binding signal of the following sequence: TACGGCAA 0.212

What value of binding signal has been reported for the following sequence? AATAGCGT 0.261

binding signal for ACACGTAA ? 0.316

Would you mind telling me what binding signal value was observed for GAAGGTAA ? 0.255

Query (sequence): ATAAGGAA ; field requested: binding signal 0.136

Value lookup for binding signal; key = TGCGTGAA 0.198

// data source = paper PMC4081100
